measurement.type: melting point

> print(dat)
                                   molecule  measured.value
1  CCOC(=O)c1ccc(/C=C(\CCCc2ccc(OC)cc2)Cn2ccnc2)cc1     92 to 94 °C

Record `Cc1ccc(Cc2cnc(NCCCN(Cc3cccc(Cl)c3)c3ccccn3)[nH]c2=O)cn1` . Reported melting point: 100 to 104 °C

response.value for CCC(C)OC(=O)SN(C(=O)N1CC2(C(=O)OC)CCc3ccccc3C2=N1)c1ccc(C(F)(F)F)cc1 (stereo not drawn) (field: melting point) = 125 to 126 °C

Sample `COn1c(-c2ccccc2)nc2c(N)nc3ccccc3c21` ; melting point observed: 241 to 243 °C

* * *

measurement.type: melting point

Example results:
> print(dat)
                                   compound  measured.value
1  O=S(=O)(Oc1ccc(Oc2ccc(OS(=O)(=O)c3ccccc3)cc2)cc1)c1ccccc1   129 to 130 °C
2  Cc1nccc(C(=O)O)c1-c1nc(-c2ccc(Cl)cc2)cs1     92 to 94 °C
3     O=[N+]([O-])c1ccc(Cl)c(CN2CCCCC2)c1Cl     67 to 68 °C
4  CCOC(=O)C(Br)C(=O)Nc1ccc(Cl)cc1 (stereo not given)   117 to 119 °C
5  COc1c(Nc2ncc3ccc(-c4ccccc4N(C)S(C)(=O)=O)n3n2)ccc(N2CCN(C[C@H](C)O)CC2)c1F     86 to 88 °C
6  O=C(O)Cc1ccc2c(c1)C(=O)c1cc3ccccc3cc1C2=O        > 220 °C
7  COc1cccc2c1OC(COS(=O)(=O)c1ccc(C)cc1)CO2 (stereo not given)     66 to 68 °C
8  CC(C)(C)N1OC(c2ccccc2)(N2CCOCC2)c2cc(Cl)ccc21 (stereo not given)   130 to 132 °C

// melting point value for CC(C)CC(=O)OC(C)OC(=O)NC1(C(=O)O)CC1 (stereo not given) : 117 to 119 °C

Lab note: measured melting point of `NCC(=O)Nc1c(Br)cc(Br)cc1Br` was 185 to 186 °C

// melting point value for `Cc1ccccc1C(=O)Nc1ccc(-n2nc(C(F)(F)F)cc2C(F)(F)F)cc1` : 165 to 167 °C

Measured melting point of `CSCCCc1cc(F)c2ncc(C(=O)NCc3ccc(Cl)cc3)c(O)c2c1` : 178 to 180 °C

The compound identified as `CN(CCCc1c(N)nc(N)[nH]c1=O)c1ccc(C(=O)N[C@@H](CCC(=O)O)C(=O)O)cc1` registered its melting point at 190 to 200 °C

Record `CCOC(=O)c1ncn(C(c2ccccc2)(c2ccccc2)c2ccccc2)c1C` . Reported melting point: 188 to 190 °C

Entry under test: O=c1oc(-c2ccccc2)cc(O)c1C(CC1CC1)SC1CCCCC1 (stereo not given) . Its melting point was 69 to 71 °C

Consider `COc1nc2cc(Cl)c(Cl)c(N)c2nc1OC` . Its measured melting point is 182 to 184 °C

// melting point lookup, compound = `COc1c2c(c(OC)c(OC)c1OC)CC(CCCOc1ccc(C(=O)O)cc1)C2` , result: 160 to 161 °C

melting point reported for this compound CCOC(=O)CN1C(=O)SC(Cc2ccc(N3CCC(NCC(O)c4ccc(O)c(NS(C)(=O)=O)c4)CC3)cc2)C1=O (stereo not given) : 153 to 155 °C

Entry `Cc1sc(C(=O)O)cc1NC(=O)NCc1ccccc1` — recorded melting point = 259 to 260 °C

Sample `CC1(C)NC(=O)N(c2ccc(C#N)c(C(F)(F)F)c2)C1=O` ; melting point observed: 210 °C
